# PROTOCOL_CONDITIONS: in acetone, 293.15 K
MEASURE_NAME: solubility (mole fraction)

Prompt line: Provide measured solubility (mole fraction) value, entry: N[C@@H](Cc1c[nH]c2ccccc12)C(=O)O
Response line: 0.00015

###

# PROTOCOL_CONDITIONS: in acetonitrile, 318.15 K
MEASURE_NAME: solubility (mole fraction)
Just the number.

Prompt line: Please give measured solubility (mole fraction) of the following entry: N[C@@H](Cc1c[nH]c2ccccc12)C(=O)O
Response line: 0.0001

###

# PROTOCOL_CONDITIONS: in methanol, 313.15 K
MEASURE_NAME: solubility (mole fraction)

Prompt line: Give solubility (mole fraction) for N[C@@H](Cc1c[nH]c2ccccc12)C(=O)O
Response line: 0.00131
